This collection of values is drawn from PubChem BioAssay.

target: Dickkopf-related protein 1 (Homo sapiens); test: DKK1 binders on small-molecule microarrays, primary screen, biochemical, small-molecule microarray, 635 nm fluorescence scan (AID 1106); conditions: DKK1 binding, higher = more signal;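 also: score merges emission near 667 nm with signal to noise over three replicate slides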
Bucketed by reported composite z-score, buckets being low class: < 0.3; middle class: ≥ 0.3 and < 0.5; high class: ≥ 0.5

Place this molecule in its band: CON=C(C)CCN1CCc2nc(-c3ccccc3)c(-c3ccccc3)cc2C1 middle class

Place this molecule in its band: CC(C)(C)N1C(=O)[C@H]2[C@H]3[C@H](O)[C@H](O)CC(=NNC(=O)OCc4ccccc4)[C@H]3CC[C@H]2C1=O high class

Place this molecule in its band: CC(C)=CCCC(C)=CCON=C1C[C@@H](O)[C@@H](O)[C@@H]2[C@@H]3C(=O)N(c4cccc(Oc5ccccc5)c4)C(=O)[C@@H]3CC[C@H]12 middle class

Place this molecule in its band: CC(C)CON=C1C[C@@H](O)[C@@H](O)[C@@H]2[C@@H]3C(=O)N([C@@H](C)c4ccccc4)C(=O)[C@@H]3CC[C@@H]12 low class

Place this molecule in its band: C[C@H]1CC[C@H]2C(=O)O[C@H](CO)CN2[C@@H]1c1ccc(Br)cc1 low class

Place this molecule in its band: C[C@@H]1CC[C@H]2C(=O)OC(CN3C(=O)c4ccccc4C3=O)CN2[C@H]1c1ccc(Br)cc1 (stereo not given in full) middle class

Place this molecule in its band: C#CCCCON=C1[C@H]2CCn3c(=O)n(Cc4cc5c(cc4Cl)OCO5)c(=O)n3[C@H]2[C@H](O)[C@@H]2O[C@H]12 high class

Place this molecule in its band: CC(C)CON=C1C[C@@H](O)[C@@H](O)[C@@H]2[C@@H]3C(=O)N(c4ccc(F)cc4F)C(=O)[C@@H]3CC[C@@H]12 low class

Place this molecule in its band: O=C1C=C[C@@H](O)[C@@H]2[C@@H]3C(=O)N(Cc4ccc5c(c4)OCO5)C(=O)[C@@H]3CC[C@@H]12 high class

Place this molecule in its band: CC(C)[C@@H](OCc1ccccc1)[C@H](C)CON=C1[C@H]2CCn3c(=O)n(-c4ccccc4)c(=O)n3[C@H]2[C@H](O)[C@@H]2O[C@H]12 high class

Place this molecule in its band: C[C@@H]1CC[C@@H](C(=O)O)N[C@H]1c1cccc(N2CCOCC2)c1 low class

Place this molecule in its band: CSCC[C@@H]1NC(=O)CC=C[C@@H](C)COC(=O)[C@H](C)COC1=O high class

Place this molecule in its band: C[C@@H]1CC[C@H]2C(=O)O[C@@H](COc3ccc(C(C)(C)C)cc3)CN2[C@H]1c1ccc(Br)cc1 low class

---

experiment: binders of probe aFGF2 on microarray, primary screen, stem cell growth factor project, biochemical, small-molecule microarray, fluorescence 635/667 (AID 1067); conditions: higher = more signal;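 also: measures binding of biotinylated aFGF2 protein to printed compounds on slides; z-score merges feature fluorescence and signal-to-noise across triplicate slides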
property: composite z-score
Give the figure only, with no unit attached.

Kindly note the recorded composite z-score for CON=C(C)CCC(=O)OC[C@H]1O[C@H](C#Cc2ccccc2)C=C[C@@H]1Oc1ccc(C)cc1 , which is -0.0563

Kindly note the recorded composite z-score for C#CCCCON=C1C[C@@H](O)[C@@H](O)[C@@H]2[C@@H]3C(=O)N(C[C@@H]4CCCO4)C(=O)[C@@H]3CC[C@@H]12 , which is -0.0909

Kindly note the recorded composite z-score for CCN1C(=O)[C@H]2[C@H]3[C@H](O)[C@H](O)CC(=NOC[C@@H](O)[C@H]4O[C@@H]5OC(C)(C)O[C@@H]5[C@H]4O)[C@@H]3CC[C@H]2C1=O , which is -0.173

Kindly note the recorded composite z-score for O=C1[C@H]2[C@H]3[C@H](O)[C@H](O)CC(=NOCc4ccccc4)[C@H]3CC[C@H]2C(=O)N1C1CCCCC1 , which is -0.0934

Kindly note the recorded composite z-score for C=CC[C@@H]1C=C[C@H](ON=CC[C@@H]2C=C[C@H](OC(C)=O)[C@@H](COC(C)=O)O2)[C@@H](CO)O1 , which is -0.0864

Kindly note the recorded composite z-score for CON=C[C@@H](OC)[C@H](C)C=CCC(=O)OC , which is -0.191

Kindly note the recorded composite z-score for CC(C)[C@@H](OCc1ccccc1)[C@H](C)C=NOC[C@@H](O)[C@H]1O[C@@H]2OC(C)(C)O[C@@H]2[C@H]1O , which is -0.198
